biological target: BmOR3–BmOrco (Bombyx mori); assay: BmOR3–BmOrco intermolecular BRET assay; conditions: HEK293 cells; 5 min stimulation; read-out: EC50 of BRET signal increase between Rluc-BmOR3 and YFP-BmOrco
Sequence (Q5FBE0 1-439): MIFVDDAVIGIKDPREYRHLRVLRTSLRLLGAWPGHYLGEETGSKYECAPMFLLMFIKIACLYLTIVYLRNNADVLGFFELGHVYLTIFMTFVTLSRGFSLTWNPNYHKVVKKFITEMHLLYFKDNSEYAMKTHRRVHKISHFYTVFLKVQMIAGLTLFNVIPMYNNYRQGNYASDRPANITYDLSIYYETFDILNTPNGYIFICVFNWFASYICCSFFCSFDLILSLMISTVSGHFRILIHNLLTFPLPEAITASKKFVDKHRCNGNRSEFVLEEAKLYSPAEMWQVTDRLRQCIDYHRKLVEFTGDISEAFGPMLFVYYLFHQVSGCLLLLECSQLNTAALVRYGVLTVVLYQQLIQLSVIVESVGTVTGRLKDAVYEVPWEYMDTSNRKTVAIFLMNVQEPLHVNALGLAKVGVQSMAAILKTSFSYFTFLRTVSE
Sequence (Q7YT34 1-472 partner): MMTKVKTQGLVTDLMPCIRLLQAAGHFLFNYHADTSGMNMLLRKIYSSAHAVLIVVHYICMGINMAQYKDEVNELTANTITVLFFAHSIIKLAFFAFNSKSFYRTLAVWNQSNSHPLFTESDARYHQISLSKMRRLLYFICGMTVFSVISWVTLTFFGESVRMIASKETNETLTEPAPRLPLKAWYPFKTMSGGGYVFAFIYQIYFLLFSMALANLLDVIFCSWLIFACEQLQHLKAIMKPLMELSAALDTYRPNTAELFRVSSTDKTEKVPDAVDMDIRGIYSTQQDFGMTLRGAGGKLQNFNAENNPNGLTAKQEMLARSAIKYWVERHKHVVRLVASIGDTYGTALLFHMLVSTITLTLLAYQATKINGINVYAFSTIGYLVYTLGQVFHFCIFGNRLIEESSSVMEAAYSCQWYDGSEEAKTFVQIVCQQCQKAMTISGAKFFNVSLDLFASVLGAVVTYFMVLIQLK
Quantity Name: EC50 (nM)

Compound	Test Result
CCC/C=C\C=C\CCCCCCCCC=O [bombykal]	36

---

Molecular target: UniProt Q5FBE0
Test: G protein dissociation BRET assay (TRUPATH probes)
Assay type: cell-based
Settings: HEK293 cells; Gi BRET probes; 2 min stimulation; read-out: EC50 of Gi activation through BmOR3 (decrease of the BRET signal)
Procedure: The Gi, Gq, Go, Gs, and Gz dissociation BRET probes were from the TRUPATH kit, which was a gift from Bryan Roth (Addgene kit #1000000163 ([31])). HEK293 cells were cotransfected with BmOR3 along with specific G protein BRET probes. […] The light emission of Rluc8 (400 nm) and GFP10 (510 nm) was measured after the addition of the substrate coelenterazine 400a (5 μM) using a Mithras LB 940 multimode reader (Berthold Technologies). […]
Quantity Name: EC50 (nM)

Compound	Unit	Test Result
CCC/C=C\C=C\CCCCCCCCC=O [bombykal]	nM	16.4

---

biological target: BmOR3 (Bombyx mori, UniProt Q5FBE0); assay: G protein recruitment BRET assay (Gi-Rluc to YFP-BmOR3); format: cell-based; settings: HEK293 cells; Gi3; 2 min stimulation; read-out: EC50 of coupling of Rluc-tagged Gi3 to YFP-fused BmOR3
Sequence (Q5FBE0 entry or part of it): as the sequence (Q5FBE0 1-439) above

Structure String	EC50 / nM
CCC/C=C\C=C\CCCCCCCCC=O	10.6
